tested on: Phytophthora infestans; experiment: whole plant or invertebrate; type: in vivo; settings: Phytophthora infestans, in Solanum lycopersicum, 72 h, read-out: Efficacy in %, single active compound, application rate 1 g/ha; tomato, protective, evaluation 3 days after inoculation
pest or weed control at 1 g/ha by entry:
Observed Property: pest or weed control at 1 g/ha (%)

{"columns": ["Compound", "Observed Property", "Measured Number"],
 "data": [
  ["CO/C=C(/C(=O)OC)c1ccccc1Oc1cc(Oc2ccccc2C#N)ncn1", "pest or weed control at 1 g/ha", 55],
  ["CO/N=C(/C(=O)OC)c1ccccc1CO/N=C(\\C)c1cccc(C(F)(F)F)c1", "pest or weed control at 1 g/ha", 0],
  ["CO/N=C(/C1=NOCCO1)c1ccccc1Oc1ncnc(Oc2ccccc2Cl)c1F", "pest or weed control at 1 g/ha", 8],
  ["CC(C)OC(=O)NC(C(=O)NC(C)c1nc2ccc(F)cc2s1)C(C)C (stereo not shown)", "pest or weed control at 1 g/ha", 47]
]}
